Value source: the NIST ThermoML archive (doi:10.1021/je700670k)

condition_context: 293.15 K; 15000 kPa; Liquid; Vibrating tube method
± gives the expanded uncertainty stated by the source.
experimental_endpoint: mass density
Field note: include the unit after the figure.

# count of solved cases: 4
compound=CCC[N+]1(C)CCCC1.O=S(=O)([N-]S(=O)(=O)C(F)(F)F)C(F)(F)F experimental_endpoint="mass density" endpoint_result="1449.2 ± 12 kg/m3"
compound=CCCC[N+]1(C)CCCC1.O=S(=O)([N-]S(=O)(=O)C(F)(F)F)C(F)(F)F experimental_endpoint="mass density" endpoint_result="1419.6 ± 12 kg/m3"
compound=CCC[n+]1cccc(C)c1.O=S(=O)([N-]S(=O)(=O)C(F)(F)F)C(F)(F)F experimental_endpoint="mass density" endpoint_result="1466.1 ± 12 kg/m3"
compound="CCn1cc[n+](C)c1.O=S(=O)([O-])C(F)(F)F [1-ethyl-3-methylimidazolium trifluoromethanesulfonate]" experimental_endpoint="mass density" endpoint_result="1388.2 ± 12 kg/m3"

# ---- query compound ----
Sure, the documented mass density for CCC[N+]1(C)CCCCC1.O=S(=O)([N-]S(=O)(=O)C(F)(F)F)C(F)(F)F is 1427.1 ± 12 kg/m3

====

condition_context: 353.15 K; 100 kPa; Liquid; Vibrating tube method
experimental_endpoint: mass density (kg/m3)
Just the number in kg/m3, nothing appended.

# count of solved cases: 4
compound=CCCC[N+]1(C)CCCC1.O=S(=O)([N-]S(=O)(=O)C(F)(F)F)C(F)(F)F endpoint_result=1351.5
compound=CCC[n+]1cccc(C)c1.O=S(=O)([N-]S(=O)(=O)C(F)(F)F)C(F)(F)F endpoint_result=1393.7
compound="CCn1cc[n+](C)c1.O=S(=O)([O-])C(F)(F)F [1-ethyl-3-methylimidazolium trifluoromethanesulfonate]" endpoint_result=1325.3
compound=CCC[N+]1(C)CCCCC1.O=S(=O)([N-]S(=O)(=O)C(F)(F)F)C(F)(F)F endpoint_result=1358.5

# ---- query compound ----
Sure, the documented mass density for CCC[N+]1(C)CCCC1.O=S(=O)([N-]S(=O)(=O)C(F)(F)F)C(F)(F)F is 1380

====

condition_context: 313.15 K; 25000 kPa; Liquid; Vibrating tube method
experimental_endpoint: mass density (kg/m3)
Just the number in kg/m3, nothing appended.

# count of solved cases: 4
compound=CCC[n+]1cccc(C)c1.O=S(=O)([N-]S(=O)(=O)C(F)(F)F)C(F)(F)F endpoint_result=1453.1
compound=CCCC[N+]1(C)CCCC1.O=S(=O)([N-]S(=O)(=O)C(F)(F)F)C(F)(F)F endpoint_result=1407.7
compound=CCC[N+]1(C)CCCCC1.O=S(=O)([N-]S(=O)(=O)C(F)(F)F)C(F)(F)F endpoint_result=1415.1
compound="CCn1cc[n+](C)c1.O=S(=O)([O-])C(F)(F)F [1-ethyl-3-methylimidazolium trifluoromethanesulfonate]" endpoint_result=1376

# ---- query compound ----
Sure, the documented mass density for CCC[N+]1(C)CCCC1.O=S(=O)([N-]S(=O)(=O)C(F)(F)F)C(F)(F)F is 1436.9

====

# maps each entry to its mass density
condition_context: 393.15 K; 15000 kPa; Liquid; Vibrating tube method
Just the number in kg/m3, nothing appended.

Sure, the documented mass density for CCC[N+]1(C)CCCC1.O=S(=O)([N-]S(=O)(=O)C(F)(F)F)C(F)(F)F is 1357.1
